Data origin, for the record: paper PMC5540273

Overview of reported Kd across a group of compounds:
- Tested on: DRAK1;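 further: kd values determined as follow-up on hits from a single-replicate KINOMEscan panel screen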
- Construct: gene STK17A
Reply numerically in µM, unit not repeated.

>>> measured("Nc1nc(-c2ccc3c(N)n[nH]c3c2)cc(N2CCCCC2)n1")
0.11
>>> measured("CC(C)(C)c1ccc(-n2cnc3c(N)ncnc32)cc1")
0.45

Next up:
Inquiry: Missing value: Kd, DRAK1, entry CC(C)(C)OC(=O)NC1CCCN(c2cc(-c3ccc4c(N)n[nH]c4c3)nc(N)n2)C1 (stereo not shown) . Fill in?
Reply text: 0.13

---

- System: MTOR
- conditionDescription: concentration: 1 μM, replicates: in singlicate; n = 1
Label scheme for %Inh: lower than 8% is label 0, 8% and above is label 1.

>>> assignedcategory("Cc1ccc(NC(=O)c2cccc(C#N)c2)cc1-c1ccc(C(=O)Nc2ccncc2)cc1")
"label 0"
>>> assignedcategory("Cl.O=S(=O)(c1cccc(F)c1)c1ccc(Nc2ncnc3cc(Br)sc23)cc1Cl")
"label 1"
>>> assignedcategory("CCC(CC)(CC)n1cnc2c(N)ncnc21")
"label 1"

Inquiry: Dear colleague, could you confirm whether COc1ccc(Nc2nccc(N3CCC(NC(=O)Nc4ccc5c(c4)OCO5)C3)n2)cc1 (centres unmarked) has %Inh at or above 8%?
Reply text: label 1

Inquiry: Next entry: Fc1cccc(COc2ccc(Nc3ncnc4sc(-c5ccc[nH]5)cc34)cc2Cl)c1
Reply text: label 1

Inquiry: Next entry: Cl.Fc1ccccc1COc1ccc(Nc2ncnc3ccc(-c4nnc(C(F)(F)F)o4)cc23)cc1Cl
Reply text: label 0

Inquiry: Next entry: FC(F)(F)c1ccc(-c2nn3ncccc3c2-c2ccnc(Nc3cccc(C(F)(F)F)c3)n2)cc1
Reply text: label 0

---

Overview of reported %Inh across a group of molecules:
- Tested on: GSK3A
- conditionDescription: concentration: 1 μM, replicates: in singlicate; n = 1
Reply numerically in %, unit not repeated.

// below: answered molecules
>>> measured("Cc1ccc(NC(=O)c2cccc(C#N)c2)cc1-c1ccc(C(=O)Nc2ccncc2)cc1")
20
>>> measured("COc1ccc(NC(=O)Nc2ccc(C)c(-c3ccc(C(=O)Nc4ccncc4)cc3)c2)cc1")
15

Inquiry: Missing value: %Inh, GSK3A, entry Cl.c1ccc(Cn2ncc3cc(Nc4ncnc5ccccc45)ccc32)cc1 . Fill in?
Reply text: 10

Inquiry: Next entry: Cl.O=S(=O)(c1cccc(F)c1)c1ccc(Nc2ncnc3cc(Br)sc23)cc1Cl
Reply text: 21

---

- System: ICK
- conditionDescription: concentration: 1 μM, replicates: in singlicate; n = 1
Mark each entry Satisfied if its %Inh sits below 5%, and Not satisfied for all others.

Would you please look over these solved cases?
>>> assignedcategory("FC(F)(F)c1ccc(-c2cc(-c3c[nH]nc3-c3ccccn3)ccn2)cc1")
"Satisfied"
>>> assignedcategory("Cl.Fc1ccccc1COc1ccc(Nc2ncnc3ccc(-c4nnc(C(F)(F)F)o4)cc23)cc1Cl")
"Satisfied"
>>> assignedcategory("Cn1ccc2ncnc(Oc3ccc(NC(=O)Nc4cccnc4)c(Cl)c3)c21")
"Satisfied"

Inquiry: Is it true that %Inh reported for CCc1nc(-c2cccc(N(C)S(=O)(=O)c3ccccc3)c2)c(-c2ccnc(Nc3ccc(N4CCN(C(C)=O)CC4)nc3)n2)s1 is less than 5%?
Reply text: Not satisfied

Inquiry: Next entry: NC(=O)c1sc(-n2cnc3ccccc32)cc1OCc1ccccc1F
Reply text: Satisfied

Inquiry: Next entry: O=C(Nc1ccccc1F)NC1CCN(c2ccnc(Nc3ccc(F)cc3)n2)C1 (stereo not drawn)
Reply text: Not satisfied

---

Overview of reported %Inh across a group of compounds:
- Tested on: MKNK1
- conditionDescription: concentration: 1 μM, replicates: in singlicate; n = 1
State the result as a value with its unit after it.

>>> measured("CC(C)(C)c1ccc(-n2cnc3c(N)ncnc32)cc1")
"0%"
>>> measured("O=C(Nc1ccccc1)Nc1ccc(Oc2ccc3nccn3n2)cc1")
"14%"
>>> measured("CS(=O)(=O)CCNCc1nc(-c2ccc3ncnc(Nc4ccc(OCc5cccc(F)c5)c(Cl)c4)c3c2)cs1.Cl")
"0%"
>>> measured("CCc1nc(-c2cccc(N(C)S(=O)(=O)c3ccccc3)c2)c(-c2ccnc(Nc3ccc(N4CCN(C(C)=O)CC4)nc3)n2)s1")
"0%"
>>> measured("COC(=O)c1c(-c2ccccc2)c2cc(Cl)ccc2c(=O)n1Cc1ccc(S(C)(=O)=O)cc1")
"0%"

Inquiry: Name the recorded %Inh for Fc1ccc(-c2ncn(CCCNCc3ccccc3)c2-c2ccncc2)cc1 .
Reply text: 28%

Inquiry: Next entry: O=C(c1ccc(-c2cc(-c3c[nH]nc3-c3ccccn3)ccn2)cc1)N1CCCC1
Reply text: 0%

Inquiry: Next entry: FC(F)(F)c1ccc(-c2cc(-c3c[nH]nc3-c3ccccn3)ccn2)cc1
Reply text: 7%

---

Overview of reported %Inh across a group of compounds:
- Test system: AKT3
- conditionDescription: concentration: 1 μM, replicates: in singlicate; n = 1
Reply numerically in %, unit not repeated.

>>> measured("C[C@@H]1CCN(C(=O)CO)C[C@@H]1N(C)c1ncnc2[nH]ccc12")
7
>>> measured("Cc1ccc(NC(=O)c2cccc(C#N)c2)cc1-c1ccc(C(=O)Nc2ccncc2)cc1")
0
>>> measured("Cl.Cn1ccc(-c2cccc(Nc3ccnc4cc(-c5nccs5)ccc34)c2)n1")
0
>>> measured("CNc1nccc(-c2c(-c3ccc(F)cc3)ncn2CCCN2CCOCC2)n1")
14
>>> measured("CC(=O)Nc1n[nH]c2ncc(-c3ccccc3)cc12")
5

Inquiry: Name the recorded %Inh for CC(C)(C)OC(=O)NC1CCCN(c2cc(-c3ccc4c(N)n[nH]c4c3)nc(N)n2)C1 (centres unmarked) .
Reply text: 0

Inquiry: Next entry: CCCc1ccc(S(=O)(=O)NC2CCN(c3ccnc(Nc4ccc(OC)cc4)n3)C2)cc1 (centres unmarked)
Reply text: 0

Inquiry: Next entry: CCn1c(-c2ccncc2)nc2cnccc21
Reply text: 0

Inquiry: Next entry: CS(=O)(=O)CCNCc1nc(-c2ccc3ncnc(Nc4ccc(OCc5cccc(F)c5)c(Cl)c4)c3c2)cs1.Cl
Reply text: 0

Inquiry: Next entry: Cc1cccc(-c2nc(Nc3ccc4[nH]nnc4c3)c3ccccc3n2)n1
Reply text: 0

Inquiry: Next entry: Fc1cccc(COc2ccc(Nc3ncnc4nn5ccccc5c34)cc2Cl)c1
Reply text: 0

Inquiry: Next entry: Cl.c1ccc(Cn2ncc3cc(Nc4ncnc5ccccc45)ccc32)cc1
Reply text: 0

Inquiry: Next entry: CSc1nn2c(=O)cc(N3CCOCC3)nc2n1Cc1cccc(Cl)c1Cl
Reply text: 1

Inquiry: Next entry: FC(F)(F)c1ccc(-c2nn3ncccc3c2-c2ccnc(Nc3cccc(C(F)(F)F)c3)n2)cc1
Reply text: 15

Inquiry: Next entry: CCc1nc(-c2cccc(C)c2)c(-c2ccnc(NC(=O)c3ccccc3)c2)s1
Reply text: 0

Inquiry: Next entry: Oc1ccc2ncnc(Nc3ccc(OCc4ccccc4)cc3)c2c1
Reply text: 0

Inquiry: Next entry: CCC(CC)(CC)n1cnc2c(N)ncnc21
Reply text: 2

---

Overview of reported %Inh across a group of compounds:
- System: TNIK
- conditionDescription: concentration: 1 μM, replicates: in singlicate; n = 1
Reply numerically in %, unit not repeated.

// below: answered compounds
>>> measured("O=C(Nc1n[nH]c2nc(-c3ccco3)c(Br)cc12)c1ccc(CN2CCCC2)cc1.O=C(O)[C@H](O)[C@@H](O)C(=O)O [SB-742352]")
14
>>> measured("Cc1cc(N2CCC(NS(=O)(=O)c3ccc(F)cc3)CC2)nc(Nc2cccc(C#N)c2)n1.O=C(O)C(F)(F)F [GSK1653537]")
0

Inquiry: Name the recorded %Inh for CC(C)(C)c1ccc(-n2cnc3c(N)ncnc32)cc1 [SKF-97263] .
Reply text: 0

Inquiry: Next entry: Cc1ccc(C)c(NC(=O)NCCNc2ccnc(Nc3ccc(F)cc3)n2)c1 [GSK1379878]
Reply text: 0

---

- Tested on: FLT1
- conditionDescription: concentration: 1 μM, replicates: in singlicate; n = 1
Overview of reported %Inh across a group of compounds:
Reply numerically in %, unit not repeated.

// below: answered compounds
>>> measured("O=C(Nc1ccccc1F)NC1CCN(c2ccnc(Nc3ccc(F)cc3)n2)C1 (stereo not drawn)")
26
>>> measured("COc1ccc(-c2oc3ncnc(N)c3c2-c2ccc(OC)cc2)cc1")
21
>>> measured("COc1ccc(Nc2nccc(N3CCC(NC(=O)c4cccc(NC(C)=O)c4)C3)n2)cc1 (stereo not drawn)")
23

Inquiry: Name the recorded %Inh for Nc1nc(-c2ccc3c(N)n[nH]c3c2)cc(N2CCCCC2)n1 .
Reply text: 24

Inquiry: Next entry: O=c1cc(N2CCOCC2)nc2n(Cc3cccc(Cl)c3)ccn12
Reply text: 19

Inquiry: Next entry: COC(=O)c1cccc(NC(=O)NCCNc2ccnc(Nc3ccc(F)cc3)n2)c1
Reply text: 28

Inquiry: Next entry: CCc1nc(-c2cccc(C)c2)c(-c2ccnc(NC(=O)c3ccccc3)c2)s1
Reply text: 0

Inquiry: Next entry: NC(=O)c1sc(-n2cnc3ccccc32)cc1OCc1ccccc1F
Reply text: 40

Inquiry: Next entry: COc1cc2c(Nc3cccc(NC(=O)c4ccccc4)c3)ncnc2cc1OCCCN1CCOCC1
Reply text: 61
